- assay_notes: Single Ascending Dose (SAD) study, pharmacokinetics in healthy volunteers
- Assay type: in vivo, human
- recorded_conditions: human, in vivo, oral; single dose 16 mg as phosphate salt, fasted, n = 6; arithmetic mean
measured_metric: AUC(0-inf) (ng·h/mL)
// return numeric value only (unit: ng·h/mL, not printed)

[Q] For [2H]C1([2H])C([C@@H](CC#N)n2cc(-c3ncnc4[nH]ccc34)cn2)C([2H])([2H])C([2H])([2H])C1([2H])[2H] , what is its reported AUC(0-inf)?
[A] 1350

* * *

- assay_notes: Multiple Ascending Dose (MAD) study, pharmacokinetics in healthy volunteers
- Assay type: in vivo, human
- recorded_conditions: human, in vivo, oral, 24 mg, 24 mg QD, Day 7, n = 8; median
measured_metric: Tmax (h)
// return numeric value only (unit: h, not printed)

[Q] For [2H]C1([2H])C([C@@H](CC#N)n2cc(-c3ncnc4[nH]ccc34)cn2)C([2H])([2H])C([2H])([2H])C1([2H])[2H] [Compound (I)] , what is its reported Tmax?
[A] 1

All values here come from patent US12076323B2.
